TARGET_OR_SYSTEM: PfTrpB^2B9 (Pyrococcus furiosus, UniProt Q8U093, E17G/F274S/F95L/I16V/I68V/T292S/T321A/V384A)
Construct: made in house; host or cells: E. coli BL21 E. cloni Express
Sequence (Q8U093 other isoform, or with tags, fused parts or gaps I16V/E17G/I68V/F95L/F274S/T292S/T321A/V384A): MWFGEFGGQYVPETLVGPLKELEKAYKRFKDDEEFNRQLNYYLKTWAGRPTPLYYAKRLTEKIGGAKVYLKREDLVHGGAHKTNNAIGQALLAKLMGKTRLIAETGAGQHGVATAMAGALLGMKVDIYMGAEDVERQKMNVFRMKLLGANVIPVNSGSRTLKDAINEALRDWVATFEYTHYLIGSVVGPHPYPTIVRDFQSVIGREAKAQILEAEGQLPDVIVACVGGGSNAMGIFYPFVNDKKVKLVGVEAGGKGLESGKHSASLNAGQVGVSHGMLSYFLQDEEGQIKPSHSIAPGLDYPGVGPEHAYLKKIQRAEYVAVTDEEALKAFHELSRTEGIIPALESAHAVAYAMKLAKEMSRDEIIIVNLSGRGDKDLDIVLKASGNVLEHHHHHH
ASSAY_OVERVIEW: TTN of β-substitution reaction with L-Thr with different nucleophiles
Type: biochemical
ENDPOINT_LABEL: reactivity of nucleophile with PfTrpB^2B9 and excess Thr

>>> reported("Cc1ccc2cc[nH]c2c1 [6-Methylindole]")
"Good reactivity"
>>> reported("Sc1ccccc1 [thiophenol]")
"low turnover"
>>> reported("Cc1cc2ccccc2[nH]1 [2-Methylindole]")
"Good reactivity"
>>> reported("SCc1ccccc1 [benzyl mercaptan]")
"low turnover"
